METHOD SUMMARY: RAM pathway blockade in budding yeast – dse1pr::URA3 reporter, 5-FOA selection, pilot screen (AID 869);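 also: RAM network block rescues cells from 5-FOA so hits raise OD615 growth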
EXPERIMENTAL PARAMETERS: S. cerevisiae dse1pr::URA3 5-FOA growth, OD615, 2 d; at 10 µM; hits give high values; strain carries analog-sensitive mutant Cbk1 kinase
Kind request: treat 1% as inclusive, so inhibition at 1% or higher is YES, anything lower is NO.

Look over these answered cases.
MOLECULE | CLASS
CCOC(=O)N1CCN(C(=O)CSc2nnc(-c3cccc(Cl)c3)o2)CC1 | YES
Cc1cc(C)cc(N(CC(=O)NC2CCC(C)CC2)S(=O)(=O)c2c(C)noc2C)c1 (stereo unspecified) | YES
CN1CCN(CCCNC(=O)c2ccc(CS(=O)(=O)c3ccc(Br)cc3)o2)CC1 | YES

Hi, just wondering whether CCOC(=O)C1CCN(C(c2cccc(OC)c2)c2sc3nc(C)nn3c2O)CC1 (stereo unspecified) shows inhibition of 1% or higher.
NO

Determine whether this molecule has inhibition no lower than 1%: CC1CCc2nn(CC(=O)N3CCN(C(=O)c4ccco4)CC3)cc2C1 (stereo unspecified)
YES
